ASSAY SYSTEM: human nSMase2 (Homo sapiens, UniProt Q9NY59)
Sequence (Q9NY59 whole entry): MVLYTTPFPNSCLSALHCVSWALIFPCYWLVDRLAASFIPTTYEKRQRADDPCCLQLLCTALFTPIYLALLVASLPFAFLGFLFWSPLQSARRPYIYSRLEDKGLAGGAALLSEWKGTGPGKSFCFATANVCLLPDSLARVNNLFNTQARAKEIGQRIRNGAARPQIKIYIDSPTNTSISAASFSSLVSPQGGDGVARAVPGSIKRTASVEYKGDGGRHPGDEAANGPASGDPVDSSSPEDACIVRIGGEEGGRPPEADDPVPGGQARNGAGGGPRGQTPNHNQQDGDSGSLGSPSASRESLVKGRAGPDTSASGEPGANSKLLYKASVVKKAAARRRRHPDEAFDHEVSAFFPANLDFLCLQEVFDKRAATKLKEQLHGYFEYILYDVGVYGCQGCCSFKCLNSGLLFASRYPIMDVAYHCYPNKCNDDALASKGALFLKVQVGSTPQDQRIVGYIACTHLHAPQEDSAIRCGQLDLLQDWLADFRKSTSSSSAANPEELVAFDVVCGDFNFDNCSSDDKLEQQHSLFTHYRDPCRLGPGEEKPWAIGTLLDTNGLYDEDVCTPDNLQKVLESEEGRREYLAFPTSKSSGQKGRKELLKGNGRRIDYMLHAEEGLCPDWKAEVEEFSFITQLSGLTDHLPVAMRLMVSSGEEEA
PROTOCOL DETAILS: Fluorescence (Amplex red coupled) nSMase2 activity assay
Assay type: biochemical
Design: Full length human nSMase2 cDNA with a C-terminal Flag tag; crude cell lysate used as enzyme
TEST CONTEXT: fluorescence nSMase2 assay (S2 Fig)
TEST READOUT: IC50 (µM)

> print(dat)
                                   compound  unit.descriptor  obs.value
1  NC(=O)[C@H]1CCCCc2c1[nH]c1ccc(Cl)cc21 [CHIC-35, reference compound]               µM         70
